Molecular target: human RORγ (Homo sapiens, UniProt P51449)
Construct: human, NM_005060.3 and from Ser253 to Lys518; expressed in transfected cells; host or cells: CHO cells (transient co-transfection with pG5-Luc reporter)
Experiment: Luciferase reporter gene assay of inhibitory effect against RORγ transcriptional activity (GAL4-hRORγ plasmid in CHO cells)
Type: cell-based
Conditions: read-out: LUC EC50 hRORg
We begin with a simple list: items and their reported EC50.

Need EC50, item `COCC(C)(C)C[C@H]1C[C@@H](c2onc([C@@H](CCC(=O)O)CC(=O)Nc3ccc(CO)cc3Cl)c2C2CC2)C1` < 3 µM

For the compound `Cc1ccc(NC(=O)C[C@@H](CC(C)(C)O)c2nnc([C@H]3C[C@@H](CC(C)C)C3)n2C2CC2)c(C)c1` , what EC50 is on record? > 3 µM

I'd like to know its EC50. The compound in question is `Cc1ccc(NC(=O)[C@H]2CN(C(=O)CN(C)C)C[C@@H]2c2nnc([C@H]3C[C@@H](CC(C)C)C3)n2C2CC2)c(C)c1` > 3 µM

Entry `Cc1ccc(NC(=O)[C@H]2CN(C(=O)N3CCN(C)CC3)C[C@@H]2c2nnc([C@H]3C[C@@H](CC(C)(C)C)C3)n2C2CC2)c(C)c1` : reported EC50 = ? < 3 µM

What does the record list as EC50 for `Cc1ccc(NC(=O)C[C@H](CC#N)c2noc([C@H]3C[C@@H](CC(C)C)C3)c2C2CC2)c(C)c1` ? < 3 µM

Entry under review: Cc1ccc(NC(=O)C[C@H](CC(O)C(F)(F)F)c2nnc([C@H]3C[C@@H](CC(C)C)C3)n2C2CC2)c(C)c1 (single isomer, unassigned) [Example F-622] . Reported EC50? < 3 µM

Can you share its EC50? I mean this compound: `Cc1ccc(NC(=O)C[C@H](CCCO)c2noc([C@H]3C[C@@H](CC(C)(C)C)C3)c2C2CC2)c(C)c1O` < 3 µM

// EC50 lookup, key: `Cc1ccc(NC(=O)[C@H]2CN(S(=O)(=O)C(F)(F)F)C[C@@H]2c2nnc(-c3cc(CC(C)C)on3)n2C2CC2)c(C)c1` < 3 µM

Tell me the measured EC50 of `Cc1c(F)ccc(NC(=O)C[C@H](CCO)c2nnc([C@H]3C[C@@H](CC(C)C)C3)n2C2CC2)c1C` , please. < 3 µM

Quick one: EC50 of `Cc1ccc(NC(=O)[C@H]2CN(C(=O)C(F)F)C[C@@H]2c2nnc([C@H]3C[C@@H](CC(C)(C)C)C3)n2C2CC2)c(C)c1` ? < 3 µM

Returns the measured EC50 for the input compound. Input: `Cc1ccc(NC(=O)C[C@H](CCC(=O)O)n2nnc([C@H]3C[C@@H](CC(C)(C)C)C3)c2C2CC2)c(Cl)c1` < 3 µM

If you can, please state the reported EC50 value of `C=CCCCCc1onc(CCC(=O)Nc2cccc(C=C)c2)c1C1CC1` . > 3 µM

Form field: reported EC50 of Cc1ccc(NC(=O)CC(Cc2cccc(=O)[nH]2)c2nnc([C@H]3C[C@@H](CC(C)C)C3)n2C2CC2)c(C)c1 (mixture of isomers) < 3 µM

* * *

Target: human RORγ (Homo sapiens)
Construct: human, NM_005060.3 and from Ser253 to Lys518; expressed in transfected cells; host or cells: CHO cells (transient co-transfection with pG5-Luc reporter)
Experiment: Luciferase reporter gene assay of inhibitory effect against RORγ transcriptional activity (GAL4-hRORγ plasmid in CHO cells)
Assay type: cell-based
Conditions: read-out: LUC EC50 hRORg
pEC50: −log10 of the molar value.
# pEC50 per entry

# count of solved cases: 3
Compound: COc1c(C)ccc(NC(=O)C[C@H](CCCO)c2noc([C@H]3C[C@@H](CC(C)(C)C)C3)c2C2CC2)c1C [Example F-696]
pEC50: > 5.52
--
Compound: Cc1ccc(NC(=O)C[C@H](CCC(=O)O)c2nnn([C@H]3C[C@@H](CC(C)(C)C(C)C)C3)c2C2CC2)c(F)c1 [Example F-706]
pEC50: > 5.52
--
Compound: Cc1ccc(NC(=O)[C@H]2CN(C(=O)CN(C)C)C[C@@H]2c2nnc([C@H]3C[C@@H](CC(C)(C)C)C3)n2C2CC2)c(C)c1 [Example F-648]
pEC50: > 5.52

Which pEC50 is reported with human RORγ (Homo sapiens) for this entry: Cc1ccc(NC(=O)C[C@H](CCC(=O)O)c2noc3c2C(C)CCC3CCC(C)C)c(Cl)c1 (single isomer, unassigned) [Example F-694] ? > 5.52

Form field - read-out: pEC50; system: human RORγ (Homo sapiens); submitted item: Cc1ccc(NC(=O)CCc2noc(C3(CCO)CC(CC(C)(C)C)C3)c2C2CC2)c(Cl)c1 (mixture of isomers) [Example F-742] < 5.52

* * *

Biological target: human RORγ (Homo sapiens)
Construct: human, NM_005060.3 and from Ser253 to Lys518; expressed in transfected cells; host or cells: CHO cells (transient co-transfection with pG5-Luc reporter)
Sequence (P51449 253-518): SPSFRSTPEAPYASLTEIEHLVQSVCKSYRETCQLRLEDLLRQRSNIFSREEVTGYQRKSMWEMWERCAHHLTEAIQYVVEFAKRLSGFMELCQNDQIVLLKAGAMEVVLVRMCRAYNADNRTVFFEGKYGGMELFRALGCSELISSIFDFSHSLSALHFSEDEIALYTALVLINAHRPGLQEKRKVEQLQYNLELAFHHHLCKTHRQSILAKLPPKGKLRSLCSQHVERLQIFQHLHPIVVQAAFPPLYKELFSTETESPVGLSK
Assay: Luciferase reporter gene assay of inhibitory effect against RORγ transcriptional activity (GAL4-hRORγ plasmid in CHO cells)
Type: cell-based
Details: read-out: LUC EC50 hRORg
Measurement Name: EC50

Input Smiles: Cc1ccc(NC(=O)C[C@H](CCc2nnn[nH]2)c2noc([C@H]3C[C@@H](CC(C)C)C3)c2C2CC2)c(C)c1
EC50: < 3 µM

Requested field: EC50. Item: `CC(C)(C[C@H]1C[C@@H](c2onc([C@@H](CCC(=O)O)CC(=O)Nc3ccc(CO)cc3Cl)c2C2CC2)C1)C(=O)O` > 3 µM

* * *

Target: mouse RORγ (Mus musculus)
Construct: mouse, NM_011281.2 and from Ile251 to Lys516; expressed in transfected cells; host or cells: CHO cells (transient co-transfection with pG5-Luc reporter)
Sequence (P51450 251-516): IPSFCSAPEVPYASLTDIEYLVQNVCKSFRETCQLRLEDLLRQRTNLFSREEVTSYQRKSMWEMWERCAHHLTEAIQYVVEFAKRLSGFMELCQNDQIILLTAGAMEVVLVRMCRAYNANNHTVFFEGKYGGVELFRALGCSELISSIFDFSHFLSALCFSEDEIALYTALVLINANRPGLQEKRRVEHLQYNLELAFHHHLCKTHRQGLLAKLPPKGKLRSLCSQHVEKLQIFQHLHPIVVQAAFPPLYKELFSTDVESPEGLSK
Experiment: Luciferase reporter gene assay of inhibitory effect against RORγ transcriptional activity (GAL4-mRORγ plasmid in CHO cells)
Assay type: cell-based
Details: read-out: LUC EC50 (μM) mRORg
Measurement Name: EC50

Solved cases (8 shown):
Molecule: Cc1ccc(NC(=O)C[C@H](N)c2nnc(CCCC(C)(C)C)n2C2CC2)c(C)c1
EC50: < 3 µM

Molecule: CC(=O)N1C[C@H](C(=O)Nc2ccc(C)cc2C)[C@@H](c2nnc(CCCC(C)C)n2C2CC2)C1 (racemic) [Example F-220]
EC50: < 3 µM

Molecule: Cc1c(Cl)cccc1NC(=O)CCc1nnc(CC[C@H]2CC[C@H](C(=O)N(C)C)CC2)n1C1CC1
EC50: > 3 µM

Molecule: CC(C)CCc1nnc(CCC(=O)NCc2cccc3[nH]cnc23)n1C1CC1
EC50: > 3 µM

Molecule: O=C(O)CC[C@@H](CC(=O)Nc1ccc(F)cc1Cl)c1noc(-c2cc(C3CCCC3)on2)c1C1CC1
EC50: < 3 µM

Molecule: Cc1ccc(NC(=O)CC(CN)c2nnc(CCCC(C)C)n2C2CC2)c(C)c1 (racemic)
EC50: > 3 µM

Molecule: Cc1ccc(NC(=O)[C@H]2CN(S(=O)(=O)C(F)(F)F)C[C@@H]2c2nnc(CCCC(C)(C)C)n2C2CC2)c(C)c1 (racemic)
EC50: < 3 µM

Molecule: Cc1ccc(NC(=O)C[C@@H](CCO)c2nnc(-c3cc(CC(C)C)on3)n2C2CC2)c(C)c1
EC50: > 3 µM

I would be grateful if you could share the reported EC50 for `CCOC(=O)CCc1nnc(CCC(=O)Nc2cccc(Cl)c2C)n1C1CC1` . > 3 µM

Entry `Cc1cccc(O)c1NC(=O)CCc1nnc(CCC(C)C)n1C1CC1` has what EC50? > 3 µM

Which measured EC50 value corresponds to `Cc1c(Cl)cccc1NC(=O)CCc1nnc(COCc2ccccc2)n1C1CC1` ? < 3 µM

If you can, please state the reported EC50 value of `Cc1ccc(NC(=O)CCc2nnc(CCC3CCCCC3)n2C2CCC2)c(C)c1` . < 3 µM

Item under review: `Cc1ccc(NC(=O)C[C@H](C[C@H](O)CO)c2nnc(CCCC(C)C)n2C2CC2)c(C)c1` . Reported EC50? < 3 µM

* * *

Biological target: human RORγ (Homo sapiens, UniProt P51449)
Construct: human, NM_005060.3 and from Ser253 to Lys518; expressed in transfected cells; host or cells: CHO cells (transient co-transfection with pG5-Luc reporter)
Assay: Luciferase reporter gene assay of inhibitory effect against RORγ transcriptional activity (GAL4-hRORγ plasmid in CHO cells)
Format: cell-based
Settings: read-out: LUC EC50 (μM) hRORg
Measurement Name: EC50

Molecule: CC(C)(C)Cc1cc(-c2noc([C@@H](CCC(=O)O)CC(=O)Nc3ccc(Cl)cc3F)c2C2CC2)no1 [Example E-76]
EC50: < 3 µM

Molecule: Cc1cc(C#N)ccc1NC(=O)CCc1nnc(CCC(C)C)n1C1CC1 [Example F-161]
EC50: > 3 µM

Molecule: CC(C)C(F)(F)c1cc(-c2onc([C@@H](CCC(=O)O)CC(=O)Nc3ccc(F)cc3Cl)c2C2CC2)no1 [Example E-61]
EC50: < 3 µM

Molecule: Cc1ccc(NCc2nnc(CCC(=O)Nc3cccc(Cl)c3C)n2C2CC2)cc1 [Example F-180]
EC50: > 3 µM

Molecule: Cc1ccc(NC(=O)CCc2nnc(CCC(C)C)n2C2CC2)c(C)c1 [Example F-79]
EC50: > 3 µM

Molecule: CC(=O)N1C[C@H](C(=O)Nc2cccc(Cl)c2C)[C@@H](c2nnc(CCC(C)C)n2C2CC2)C1 (racemic) [Example F-145]
EC50: < 3 µM

Molecule: Cc1ccc(NC(=O)[C@H]2CCN(C)C[C@@H]2c2nnc(CCCC(C)(C)C)n2C2CC2)c(C)c1 (racemic) [Example F-395]
EC50: < 3 µM

Molecule: CNC(=O)CO[C@@H](CC(=O)Nc1ccc(C)cc1C)c1nnc([C@H]2C[C@@H](CC(C)C)C2)n1C1CC1 [Example F-480]
EC50: < 3 µM

Tell me the measured EC50 of Cc1noc(NC(=O)CCc2nnc(CCC(C)C)n2C2CC2)c1C [Example F-106] , please. > 3 µM

Any idea what EC50 was measured for CC(C)CCc1nnc(CCC(=O)NC2CCc3ccccc32)n1C1CC1 (racemic) [Example F-83] ? > 3 µM
